pIC50 values, listed per item
biological target: Full-length wild type HIV-1 integrase (SF1) (Human immunodeficiency virus type 1 group M subtype B, UniProt P04585); construct: made in house; host or cells: E. coli BL21 (DE3), pET24a vector; assay: Integrase strand-transfer scintillation proximity assay; format: biochemical; conditions: IC50, integrase strand-transfer SPA
# pIC50 = -log10(concentration in molar units)

CN(Cc1ccccc1)Cc1cn(Cc2ccc(F)cc2)c2cnc3c(=O)n(O)ccc3c12 7.87

Moving on to the next compound.
Q) So what's the measured pIC50 for this one? NC(=O)[C@@H]1CCCN1Cc1cn(Cc2ccc(F)cc2)c2cnc3c(=O)n(O)ccc3c12
A) 7.74
